Source of measurements: paper PMC10023787

# assay system: bovine trypsin (Bos taurus)
# Construct: purchased Sigma-Aldrich T8003
# Sequence (P00760 24-246): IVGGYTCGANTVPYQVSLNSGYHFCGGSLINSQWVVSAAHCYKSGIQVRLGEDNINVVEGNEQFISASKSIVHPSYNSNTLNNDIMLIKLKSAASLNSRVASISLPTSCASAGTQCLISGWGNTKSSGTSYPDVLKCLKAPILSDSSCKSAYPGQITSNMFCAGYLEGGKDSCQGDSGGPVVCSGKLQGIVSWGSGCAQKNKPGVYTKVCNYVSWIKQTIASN
# assay procedure: Trypsin inhibition assay (proteolytic activity on BApNA)
# Type: biochemical
# details: Concentration 0.1024 nM; fraction of uninhibited activity; read-out: mean (Figure 3c, dose-response, relative trypsin activity)
# Experimental: The inhibition by the benzamidine derivatives against trypsin was measured using an assay probing the enzyme proteolytic activity on the substrate Nα-Benzoyl-DL-arginine-4-nitroanilide hydrochloride (BApNA). […] The absorption was measured at 410 nm in intervals of 10 sec for 15 min at 37 °C using a Beckman Coulter’s Paradigm Detection Platform (Brea, USA). […] The activity of trypsin was calculated by the hydrolysis rate of BApNA after subtraction of the background-hydrolysis rate. […]
measurement kind: remaining activity at 0.0001024 µM (%)
Your answer should be a plain number; it is taken to be in %.

Example compounds with recorded remaining activity at 0.0001024 µM:
compound	assay system	remaining activity at 0.0001024 µM (%)
N=C(N)c1ccc(CNC(=O)C2CCC(C(=O)NCCNC(=S)Nc3cccc(I)c3)CC2)cc1 (centres unmarked)	bovine trypsin (Bos taurus)	93.7
N=C(N)c1ccc(CNC(=S)Nc2cccc(I)c2)cc1	bovine trypsin (Bos taurus)	101
N=C(N)c1ccc(CNCc2ccc(C(=O)NCCNC(=S)Nc3cccc(I)c3)cc2)cc1	bovine trypsin (Bos taurus)	105
N=C(N)c1ccc(CN)cc1 [4-Aminomethyl benzamidine, 4-aminomethyl benzamidine, reference compound]	bovine trypsin (Bos taurus)	108

We next turn to a different compound, shown below.
[ask] Give its remaining activity at 0.0001024 µM value. Item: S=C=Nc1ccccc1I [Compound B, 2-iodophenyl isothiocyanate, reference compound]
[reply] 103
